Cited source: paper PMC11995724

- Assay Details: in vitro
- Condition Summary: human, hek293t cells
# strict inequality: viability at 48 h, 25 µM < 90% yields True, everything else yields False

These recorded examples may help you get a feel for the data.
1) C=CC(=O)N(Cc1ccccc1)Cc1ccccc1 [1-P04, N,N-dibenzylprop-2-enamide] | True
2) C=CC(=O)NCCn1cc(C2CCOC2)cn1 (centres unmarked) | True
3) C=CC(=O)N(C)c1ccccc1C(=O)NC | False
4) C=CC(=O)N[C@H]1CCCC[C@H]1c1ccnn1C (racemic) | False
5) N#CC(=Cc1cccc2c1OCCCO2)C(=O)NCc1ccccc1 | False
6) C=CC(=O)N1CCCC2(CCCCO2)C1 (centres unmarked) | True
7) O=C(CCl)N1CCCSc2ccccc21 | True
8) CC(=O)c1cccc(S(=O)(=O)N2CCN(C(=O)CCl)CC2)c1 | True

Prompt: I'd appreciate it if you could check whether CC(Cl)C(=O)N(C)Cc1ccnn1C (centres unmarked) has viability at 48 h, 25 µM smaller than 90%.
Completion: False
